- System: soybean (Glycine max Merr.)
- ASSAY_INFO: Test Example 1: foliar treatment, growth inhibition rate on 14th day
- Type: in vivo
- STATED_CONDITIONS: active ingredient amount 31 g/ha, 14th day after application

QUERY_SMILES | ASSAY_TARGET | Growth inhibition rate (%) Soybean
CC(=O)Oc1c(C)nn(C)c(=O)c1-c1cc(Oc2ccc3cc(Br)ccc3n2)ccc1C | soybean (Glycine max Merr.) | 0
Cc1ccc(Oc2ncc(C(F)(F)F)cc2Br)cc1-c1c(O)c(C)nn(C)c1=O | soybean (Glycine max Merr.) | 0
CCCCC(=O)Oc1c(C)nn(C)c(=O)c1-c1cc(Oc2ncc(C(F)(F)F)cc2Cl)ccc1C | soybean (Glycine max Merr.) | 0
CC(=O)Oc1c(C)nn(C)c(=O)c1-c1cc(Oc2ncc3cc(Br)ccc3n2)ccc1C | soybean (Glycine max Merr.) | 0
CC(=O)Oc1c(C)nn(C)c(=O)c1-c1cc(Oc2ncc(Cl)cn2)ccc1C | soybean (Glycine max Merr.) | 0
CCc1nn(C)c(=O)c(-c2cc(Oc3nc4ccc(Cl)cc4o3)ccc2C)c1O | soybean (Glycine max Merr.) | 20
CC(=O)Oc1cnn(CC2CC2)c(=O)c1-c1cccc(Oc2ncc(C(F)(F)F)cc2Cl)c1C | soybean (Glycine max Merr.) | 0
CCc1nn(C)c(=O)c(-c2cc(Oc3nc4ccc(Cl)cc4o3)ccc2C)c1OC(C)=O | soybean (Glycine max Merr.) | 40
